Hey, just so you know, these numbers are from patent US10632127B2.

- Experiment Notes: Pharmacokinetic assessment in male Wistar rats (i.v.)
- Assay type: in vivo, rat
- Assay Setup: rat, kidney, intravenous, 13c 1.5 mg/kg i.v., 0.25 h, read-out: Kidney concentration of 13c
Readout Type: concentration at 0.25 h (ng/g)
// units = ng/g; emit number, no label

Output measured concentration at 0.25 h for this item: CC(=O)N[C@@H](CCC(=O)NCCOC(=O)OCCN1C(=O)[C@@H](NC(=O)[C@@](C)(O)C(=O)NCC(F)(F)C(F)(F)F)[C@@H](C)Oc2ccc(F)cc21)C(=O)O [Compound 13c] 20.5

* * *

- Experiment Notes: Pharmacokinetic assessment in C57BL/6 healthy wild-type mice (i.p.)
- Assay type: in vivo, mouse
- Assay Setup: male, mouse, plasma, ip; C57BL/6 mice, 10 mg/kg i.p., 4 h; read-out: Plasma concentration of administered compound
Readout Type: concentration at 4 h (ng/mL)
Respond numerically; units are ng/mL and should not be typed.

Indicate its recorded concentration at 4 h; the molecule in question is C[C@H]1Oc2ccc(F)cc2N(CCOC(=O)NCCN)C(=O)[C@H]1NC(=O)[C@@](C)(O)C(=O)NCC(F)(F)C(F)(F)F.Cl [Compound 11a, hydrochloride] 1.32
